Origin of the recorded values: patent US10208019B2

# experimental system: human GLP-1R (Homo sapiens, UniProt P43220, G168S)
# Sequence (P43220 24-463 G168S limits assumed): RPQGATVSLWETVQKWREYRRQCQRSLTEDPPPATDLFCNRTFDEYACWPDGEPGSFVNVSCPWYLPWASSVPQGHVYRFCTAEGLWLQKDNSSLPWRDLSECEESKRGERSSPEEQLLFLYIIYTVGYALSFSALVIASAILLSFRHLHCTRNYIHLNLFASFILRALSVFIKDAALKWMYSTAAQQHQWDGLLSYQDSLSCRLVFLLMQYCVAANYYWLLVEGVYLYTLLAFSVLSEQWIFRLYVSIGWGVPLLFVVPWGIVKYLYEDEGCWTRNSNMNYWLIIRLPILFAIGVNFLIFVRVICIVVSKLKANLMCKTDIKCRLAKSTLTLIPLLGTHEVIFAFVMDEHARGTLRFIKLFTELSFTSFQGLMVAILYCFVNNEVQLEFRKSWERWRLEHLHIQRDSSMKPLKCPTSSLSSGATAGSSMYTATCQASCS
# assay overview: CHO GLP-1R Clone H6—Assay 1: HTRF cAMP cell-based functional agonist assay (high GLP-1R density)
# measurement conditions: read-out: Assay 1 Emax (%), CHO GLP-1R Clone H6; relative to saturating concentration of full agonist GLP-1 (1 μM); arithmetic mean
Emax vs 70%: at or above is TRUE, below is FALSE.

Does the reported Emax for COCCn1c(CN2CCN(c3cccc(OCc4ccc(Cl)cc4F)n3)C[C@@H]2C(C)C)nc2ccc(C(=O)O)cc21 [Example 12A-05] fall at or above the 70% mark?
FALSE

Try this compound next: N#Cc1ccc(COc2nc(C3CCN(Cc4nc5ccc(C(=O)O)cc5n4C[C@@H]4CCO4)CC3)ccc2F)c(F)c1 [Example 10A-54]
TRUE

Try this compound next: `O=C(O)c1ccc2nc(CN3CCC(c4cccc(OCc5ccc(F)cc5F)n4)CC3)n(C[C@@H]3CCO3)c2n1`
TRUE

Try this compound next: `Cn1c(CN2CCC(c3cccc(OCc4ccc(OC(F)(F)F)cc4)n3)CC2)nc2ccc(C(=O)O)cc21`
FALSE

---

# experimental system: human GLP-1R (Homo sapiens, UniProt P43220, G168S)
# assay overview: CHO GLP-1R Clone H6—Assay 1: HTRF cAMP cell-based functional agonist assay (high GLP-1R density)
# measurement conditions: read-out: Assay 1 Emax (%), CHO GLP-1R Clone H6; relative to saturating concentration of full agonist GLP-1 (1 μM); arithmetic mean
Please respond with reported Emax for every item in the list.
Write down the numeric answer in % and omit the unit.

# query: Emax of entry `N#Cc1ccc(COc2cccc(C3CCN(Cc4nc5ccc(C(=O)O)nc5n4Cc4ncco4)CC3)n2)c(F)c1`
80

Try this compound next: `Cn1c(CN2CCC(c3cccc(OCc4cccc(C#N)c4)n3)CC2)nc2ccc(C(=O)O)cc21`
100

Try this compound next: `C[C@H]1CN(c2cccc(OCc3ccc(Cl)cc3F)n2)CCN1Cc1nc2ccc(C(=O)O)cc2n1C[C@@H]1CCO1`
84

Try this compound next: Cc1ccc(Cn2c(CN3CCC(c4cccc(OCc5ccc(Cl)cc5F)n4)CC3)nc3ccc(C(=O)O)cc32)cn1 [Example 11A-61]
79

Try this compound next: O=C(O)c1ccc2nc(CN3CCC(c4cccc(OCc5ccc(Cl)cc5F)n4)CC3)n(C[C@H]3CCCO3)c2c1 [Example 11A-68]
78

Try this compound next: CCn1cncc1Cn1c(CN2CCN(c3cccc(OCc4ccc(Cl)cc4F)n3)C[C@@H]2C)nc2ccc(C(=O)O)cc21 [Example 10A-67]
83

Try this compound next: `COC[C@@H]1C[C@H]1Cn1c(CN2CCC(c3cccc(OCc4ccc(Cl)cc4F)n3)CC2)nc2ccc(C(=O)O)cc21`
86

Try this compound next: Cn1cncc1Cn1c(CN2CCC(c3cccc(OCc4ccc(C#N)cc4F)n3)CC2)nc2ccc(C(=O)O)nc21 [Example 10A-76]
79

Try this compound next: Cc1nnc(Cn2c(CN3CCC(c4cccc(OCc5ccc(Cl)cc5F)n4)CC3)nc3ccc(C(=O)O)cc32)n1C [Example 10A-20]
98

Try this compound next: O=C(O)c1ccc2nc(CN3CCC(c4cccc(OCc5ccc(Cl)cc5F)n4)CC3)n(CCN3CCOCC3)c2c1 [Example 11A-50]
75

Try this compound next: `COCCn1c(CN2CCC(c3cccc(OCc4ccc(C#N)cc4)n3)CC2)nc2cc(F)c(C(=O)O)cc21`
71

Try this compound next: COC1CCN(CCn2c(CN3CCC(c4cccc(OCc5ccc(Cl)cc5F)n4)CC3)nc3ccc(C(=O)O)cc32)CC1 [Example 11A-56]
47

Try this compound next: CN1CCOC(Cn2c(CN3CCC(c4cccc(OCc5ccc(Cl)cc5F)n4)CC3)nc3ccc(C(=O)O)cc32)C1 (centres unmarked) [Example 11A-63]
71

Try this compound next: O=C(O)c1ccc2nc(CN3CCC(c4cccc(OCc5ccc(Cl)cc5F)n4)CC3)n(Cc3ncco3)c2c1 [Example 10A-42]
73
